assay system: ROS (Homo sapiens, UniProt P08922)
Sequence (P08922 28-2347): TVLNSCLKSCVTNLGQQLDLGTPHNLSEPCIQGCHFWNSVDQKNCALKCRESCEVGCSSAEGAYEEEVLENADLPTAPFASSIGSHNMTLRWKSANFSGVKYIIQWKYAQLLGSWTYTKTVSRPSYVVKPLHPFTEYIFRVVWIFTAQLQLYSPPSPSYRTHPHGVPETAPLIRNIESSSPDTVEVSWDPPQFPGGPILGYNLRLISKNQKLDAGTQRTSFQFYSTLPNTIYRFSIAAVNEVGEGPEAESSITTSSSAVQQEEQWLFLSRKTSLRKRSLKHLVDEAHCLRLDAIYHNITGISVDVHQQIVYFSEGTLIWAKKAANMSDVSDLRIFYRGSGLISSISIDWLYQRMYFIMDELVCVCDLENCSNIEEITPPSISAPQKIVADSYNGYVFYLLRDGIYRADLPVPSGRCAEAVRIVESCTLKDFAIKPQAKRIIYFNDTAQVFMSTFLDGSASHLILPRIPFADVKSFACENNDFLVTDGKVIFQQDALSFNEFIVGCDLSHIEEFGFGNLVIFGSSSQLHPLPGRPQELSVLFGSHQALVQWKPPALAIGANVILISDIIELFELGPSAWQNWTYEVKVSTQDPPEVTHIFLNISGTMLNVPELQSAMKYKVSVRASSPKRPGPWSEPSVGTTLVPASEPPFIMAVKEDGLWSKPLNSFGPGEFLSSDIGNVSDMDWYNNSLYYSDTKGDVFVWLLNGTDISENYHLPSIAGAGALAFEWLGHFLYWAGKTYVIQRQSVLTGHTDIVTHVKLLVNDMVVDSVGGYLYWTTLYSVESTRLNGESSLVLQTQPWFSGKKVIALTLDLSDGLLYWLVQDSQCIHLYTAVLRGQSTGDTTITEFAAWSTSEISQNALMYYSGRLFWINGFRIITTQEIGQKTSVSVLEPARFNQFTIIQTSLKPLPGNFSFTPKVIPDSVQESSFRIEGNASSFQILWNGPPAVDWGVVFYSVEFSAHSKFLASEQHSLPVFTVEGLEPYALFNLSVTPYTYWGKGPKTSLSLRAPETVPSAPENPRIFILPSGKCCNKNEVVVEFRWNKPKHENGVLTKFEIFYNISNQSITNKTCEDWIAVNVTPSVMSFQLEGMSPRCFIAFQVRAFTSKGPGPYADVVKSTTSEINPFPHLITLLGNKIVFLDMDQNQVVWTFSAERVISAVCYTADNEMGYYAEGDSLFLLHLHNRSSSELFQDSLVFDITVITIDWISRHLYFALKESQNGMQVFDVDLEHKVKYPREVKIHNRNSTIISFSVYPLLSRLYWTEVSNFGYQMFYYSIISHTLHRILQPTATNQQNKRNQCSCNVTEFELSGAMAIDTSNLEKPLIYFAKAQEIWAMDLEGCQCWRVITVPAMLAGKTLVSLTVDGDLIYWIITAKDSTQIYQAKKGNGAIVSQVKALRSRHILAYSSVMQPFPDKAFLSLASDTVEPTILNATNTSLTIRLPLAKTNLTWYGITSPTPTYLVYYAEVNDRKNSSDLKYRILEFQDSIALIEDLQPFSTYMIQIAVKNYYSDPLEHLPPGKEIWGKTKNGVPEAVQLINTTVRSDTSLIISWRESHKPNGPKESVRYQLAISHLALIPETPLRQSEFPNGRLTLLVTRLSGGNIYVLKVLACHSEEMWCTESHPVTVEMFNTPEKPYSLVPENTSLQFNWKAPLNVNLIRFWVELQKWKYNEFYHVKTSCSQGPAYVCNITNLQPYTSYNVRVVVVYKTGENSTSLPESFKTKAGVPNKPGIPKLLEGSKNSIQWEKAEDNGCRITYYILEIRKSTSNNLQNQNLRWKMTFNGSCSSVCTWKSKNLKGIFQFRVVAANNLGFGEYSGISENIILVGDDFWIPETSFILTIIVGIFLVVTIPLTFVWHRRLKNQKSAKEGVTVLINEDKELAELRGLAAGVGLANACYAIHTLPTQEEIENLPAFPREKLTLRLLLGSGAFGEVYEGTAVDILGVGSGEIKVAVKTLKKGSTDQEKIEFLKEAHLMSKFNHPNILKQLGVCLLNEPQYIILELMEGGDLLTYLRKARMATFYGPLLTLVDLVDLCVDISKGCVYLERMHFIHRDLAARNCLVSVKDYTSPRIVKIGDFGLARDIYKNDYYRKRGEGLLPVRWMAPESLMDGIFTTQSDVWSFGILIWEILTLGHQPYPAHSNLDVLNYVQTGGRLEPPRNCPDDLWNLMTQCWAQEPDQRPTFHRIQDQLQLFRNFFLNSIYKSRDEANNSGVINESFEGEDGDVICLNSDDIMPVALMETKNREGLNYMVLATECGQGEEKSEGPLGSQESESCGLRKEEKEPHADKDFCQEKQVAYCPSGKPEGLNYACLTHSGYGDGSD
run description: In vitro ROS enzymatic reaction assay (HTRF, Cisbio)
Assay type: biochemical
Design: ROS or EGFR enzyme, 0.008 ng/ul
measured endpoint: IC50 (nM)

molecule	u	observed
CC(C)c1nc(Nc2cccc(Br)c2)nc(Nc2ccc3ncsc3c2)n1	nM	86
CC(C)c1nc(Nc2ccc(N)cc2)nc(Nc2ccc3ncsc3c2)n1	nM	746
COc1ccccc1-c1cc(C(F)F)n2ncc(C(=O)NCc3cccnc3)c2n1 [drawing 224]	nM	4000
CC(C)c1nc(NCc2ccccc2)nc(Nc2ccc3ncsc3c2)n1	nM	358
O=C(NCC1CCNCC1)c1cccc(Nc2ncc(Cl)c(Nc3ccc4ncsc4c3)n2)c1 [drawing 334]	nM	380
O=C(c1cccc(-c2noc(-c3n[nH]c4c3CCCC4)n2)c1)N1CCCCC1 [drawing 248]	nM	4100
NC(=O)c1c(NC(=O)[C@H]2CC(=O)N(c3ccccc3)C2)sc2c1CCCC2 [drawing 219]	nM	1300
O=C(c1cccc(Nc2nccc(Nc3ccc4ncsc4c3)n2)c1)N1CCCCC1 [drawing 301]	nM	392

A = O=C(c1cccc(Nc2nccc(Nc3ccc4ncsc4c3)n2)c1)N1CCCCCC1 [drawing 284]
B = O=C(O)c1cccc(Nc2ncc(Cl)c(Nc3ccc4ncsc4c3)n2)c1 [drawing 325]
C = O=C(NCC1CCNCC1)c1ccc(Nc2ncc(Cl)c(Nc3ccc4ncsc4c3)n2)cc1 [drawing 331]
Input: Sequence the entries by IC50, beginning with the highest number. Please respond by ranking the labels in the order requested.
Output: C, A, B

1 = NC1CCN(C(=O)c2ccc(Nc3ncc(Cl)c(Nc4ccc5ncsc5c4)n3)cc2)CC1 [drawing 327]
2 = Cc1cccc(Nc2nccc(Nc3cccc(C(=O)NC4CCN(C)CC4)c3)n2)c1 [drawing 285]
3 = CC(C)c1nc(Nc2ccc(C(=O)N3CCN(C)CC3)cc2)nc(Nc2ccc3ncsc3c2)n1 [drawing 321]
4 = O=C(O)c1ccc(Nc2ncc(Cl)c(Nc3ccc4ncsc4c3)n2)cc1 [drawing 308]
5 = CC(C)c1nc(Nc2ccc(C(=O)NC3CCCCC3)cc2)nc(Nc2ccc3ncsc3c2)n1 [drawing 319]
Input: # rank_down: sort by IC50, max first Answer by writing out the labels in the requested order.
Output: 3, 2, 5, 1, 4
(3: 3890 nM, 2: 1420 nM, 5: 760 nM, 1: 444 nM, 4: 37 nM)

1 = O=C(NCc1ccc(F)cc1)c1cccc(Nc2nccc(Nc3ccc4ncsc4c3)n2)c1 [drawing 286]
2 = NCC1CCN(C(=O)c2ccc(Nc3ncc(Cl)c(Nc4ccc5ncsc5c4)n3)cc2)CC1 [drawing 326]
Input: Between the two listed entries 1 and 2 , which has its IC50 at the higher number? In your reply, give the label of the chosen option.
Output: 1
(1: 582 nM, 2: 368 nM)

I = NCC1CCN(C(=O)c2cccc(Nc3ncc(Cl)c(Nc4ccc5ncsc5c4)n3)c2)CC1 [drawing 333]
II = CSc1sc(-c2n[nH]cc2Br)c2c1C(=O)CC(C)(C)C2 [drawing 259]
Input: Thinking about recorded IC50 values, which is higher, I or II ? When you have decided, please share the label of that item.
Output: II
(II: 10000 nM, I: 110 nM)
